# Run Description: Dynamic solubility in water, SGF, FaSSIF and FeSSIF
# Particulars: FaSSIF, 24 hours, 37°C, solid feed concentration 10 mg/mL; 1440 min
Structures can show the parent of a compound that is named as a salt.
Measurement Type: S: solubility (µg/mL)
Only the number, expressed in µg/mL, is required.

# Compound, Measured
data = [
    ("Cc1nc(N[C@H](C)c2cccc(S(F)(F)(F)(F)F)c2)c2cn(C3(CF)CC3)c(=O)cc2n1 [Crystal form A of methanesulfonate salt]", 1830),
]

Sample Cc1nc(N[C@H](C)c2cccc(S(F)(F)(F)(F)F)c2)c2cn(C3(CF)CC3)c(=O)cc2n1 [Crystal form B of citrate salt] — what was its S: solubility?
1610

# get_value(readout='S: solubility', item= Cc1nc(N[C@H](C)c2cccc(S(F)(F)(F)(F)F)c2)c2cn(C3(CF)CC3)c(=O)cc2n1 [Crystal form A of ethanesulfonate salt] )
2520

Which S: solubility reading was recorded for the compound Cc1nc(N[C@H](C)c2cccc(S(F)(F)(F)(F)F)c2)c2cn(C3(CF)CC3)c(=O)cc2n1 [Crystal form A of fumarate salt] ?
320

====

Listed here: items and their measured S: solubility.
# Run Description: Dynamic solubility in water, SGF, FaSSIF and FeSSIF
# Particulars: SGF, 24 hours, 37°C, solid feed concentration 10 mg/mL; 1440 min
Structures can show the parent of a compound that is named as a salt.
Reply numerically in µg/mL, unit not repeated.

Observe how each entry below is paired with its result.
# Compound, Measurement Type, Measured
data = [
    ("Cc1nc(N[C@H](C)c2cccc(S(F)(F)(F)(F)F)c2)c2cn(C3(CF)CC3)c(=O)cc2n1 [Crystal form A of fumarate salt]", "S: solubility", 2090),
    ("Cc1nc(N[C@H](C)c2cccc(S(F)(F)(F)(F)F)c2)c2cn(C3(CF)CC3)c(=O)cc2n1 [Crystal form A of methanesulfonate salt]", "S: solubility", 10130),
    ("Cc1nc(N[C@H](C)c2cccc(S(F)(F)(F)(F)F)c2)c2cn(C3(CF)CC3)c(=O)cc2n1 [Crystal form A of ethanesulfonate salt]", "S: solubility", 10110),
]

The record that follows has no S: solubility shown yet.
Given Cc1nc(N[C@H](C)c2cccc(S(F)(F)(F)(F)F)c2)c2cn(C3(CF)CC3)c(=O)cc2n1 [Crystal form B of citrate salt] , state its recorded S: solubility.
9290
